Assay: Clearance in rat at 1 mg/kg, iv and 1 mg/kg, po
Type: ADME, organism-based
Settings: in vivo
property name: clearance

stdin: Given the molecule CNC(=O)c1ccc(O[C@@H](C)C(=O)N2CCN(C(=O)c3ccccc3)C[C@H]2C)c(OC)c1 , what is its reported clearance?
stdout: 75 mL/min/kg

###

Here, each record is paired with measured bioavailability data.
Assay: Bioavailability in rat at 1 mg/kg
Format: ADME, organism-based
Details: in vivo
Give the value in % but do not write % after it.

compound: CNC(=O)c1cc(OC)c(O[C@@H](C)C(=O)N2CCN(C(=O)c3ccccc3)C[C@H]2C)cn1 (mixture of isomers)
bioavailability / %: 65

stdin: Form field: reported bioavailability of CNC(=O)c1ccc(O[C@@H](C)C(=O)N2CCN(C(=O)c3ccccc3)C[C@H]2C)c(OC)c1
stdout: 48

###

Assay: Lipophilicity, log D at pH 7.4
Format: physicochemical
Details: buffer
property name: logD
// return a plain number; no unit text

stdin: Query (molecule): CNC(=O)c1ccc(OC(C)C(=O)N2CCN(C(=O)c3ccccc3)C[C@H]2C)cc1C (mixture of isomers) ; field requested: logD
stdout: 1.1

stdin: Report logD for CC(Oc1cccc(C(=O)N(C)C)c1)C(=O)N1CCN(C(=O)c2ccccc2)C[C@H]1C (mixture of isomers) please.
stdout: 1

stdin: Can you share its logD? I mean this molecule: CNC(=O)c1ccc(OC(C)C(=O)N2CCN(C(=O)c3ccccc3)C[C@H]2C)c(C)c1 (mixture of isomers)
stdout: 1.8

stdin: What logD value was documented for this molecule, CNC(=O)c1cccc(OC(C)C(=O)N2CCN(C(=O)c3ccccc3)C[C@H]2C)c1C (mixture of isomers) ?
stdout: 1.2

###

Below is a list of entries, each paired with its recorded CC50 value.
Test: Cytotoxicity against human HeLaP4 cells
Assay type: cell-based

Recorded results for 3 compounds are shown here.
compound: CNC(=O)c1cccc(OC(C)C(=O)N2CCN(C(=O)c3ccccc3)C[C@H]2C)c1 (mixture of isomers)
meas value: > 10 µM

compound: CNC(=O)c1cc(OC)c(O[C@@H](C)C(=O)N2CCN(C(=O)c3ccccc3)C[C@H]2C)cn1 (mixture of isomers)
meas value: > 10 µM

compound: CC(Oc1ccccc1C(=O)N(C)C)C(=O)N1CCN(C(=O)c2ccccc2)C[C@H]1C (mixture of isomers)
meas value: > 10 µM

Turning now to a further compound:
stdin: Param item = CCOc1cc(C(=O)NC)ccc1OC(C)C(=O)N1CCN(C(=O)c2ccccc2)C[C@H]1C (mixture of isomers) ; retrieve measured CC50.
stdout: > 10 µM

###

Experiment: in vitro
Settings: human, liver microsomes
Let's look at some compounds and their measured microsomal CLint.

Here is how some compounds turned out for microsomal CLint.
compound: CNC(=O)c1cccc(OC(C)C(=O)N2CCN(C(=O)c3ccccc3)C[C@H]2C)c1 (mixture of isomers)
microsomal CLint: < 8 µL/min/mg

compound: CNC(=O)c1cccc(OC(C)C(=O)N2CCN(C(=O)c3ccccc3)C[C@H]2C)c1C (mixture of isomers)
microsomal CLint: < 8 µL/min/mg

Then there is this compound:
stdin: What does the record list as microsomal CLint for CNC(=O)c1ccc(OC(C)C(=O)N2CCN(C(=O)c3ccccc3)C[C@H]2C)c(F)c1 (mixture of isomers) ?
stdout: < 8 µL/min/mg
